# ASSAY_SYSTEM: human V2 receptor (Homo sapiens)
# Construct: expressed in transfected cells; host or cells: CHO K1 (ATCC) expressing firefly luciferase under a CRE-responsive promoter
# ASSAY: Cellular in vitro assay for determining vasopressin receptor activity, V2 receptor cell line (CRE-luciferase)
# Assay type: cell-based
# ASSAY_CONTEXT: CHO cell line transfected with human V2 receptor; [Arg8]-vasopressin at EC50; compounds of the invention (Table 1A); read-out: IC50 hV2
MEASURED_ATTRIBUTE: IC50

Example results:
CC(O)c1nc(Cn2nc(-c3ccc(Cl)cc3)n(C[C@H](O)C(F)(F)F)c2=O)nn1-c1cc(F)cc(Cl)c1 (mixture of isomers) [Example 13] = 1.4 nM
CC(O)c1nc(Cn2nc(-c3ccc(Cl)cc3)n(C[C@H](O)C(F)(F)F)c2=O)nn1-c1cc(Cl)ccc1Cl (single isomer, unassigned) [Example 51] = 22.3 nM

In plain terms, CC(O)c1nc(Cn2nc(-c3ccc(Cl)cc3)n(C[C@H](O)C(F)(F)F)c2=O)nn1-c1ccccc1F (single isomer, unassigned) [Example 41] has a documented IC50 of 7.9 nM

----------
# ASSAY_SYSTEM: human V2 receptor (Homo sapiens)
# Construct: expressed in transfected cells; host or cells: CHO K1 (ATCC) expressing firefly luciferase under a CRE-responsive promoter
# ASSAY: Cellular in vitro assay for determining vasopressin receptor activity, V2 receptor cell line (CRE-luciferase)
# Type: cell-based
# ASSAY_CONTEXT: CHO cell line transfected with human V2 receptor; [Arg8]-vasopressin at EC50; compounds of the invention (Table 1A); read-out: IC50 hV2
// map IC50 to label using lower band = under 1 nM, central band = from 1 nM up to 4 nM, upper band = 4 nM and over

CC(O)c1nc(Cn2nc(-c3ccc(Cl)cc3)n(C[C@H](O)C(F)(F)F)c2=O)nn1-c1cc(Cl)ccc1Cl (mixture of isomers) [Example 49] = upper band
C[C@H](O)c1nc(Cn2nc(-c3ccc(Cl)cc3)n(C[C@H](O)C(F)(F)F)c2=O)nn1-c1ccccc1Cl = central band
COc1ccccc1-n1nc(Cn2nc(-c3ccc(Cl)cc3)n(C[C@H](O)C(F)(F)F)c2=O)nc1C(C)O (mixture of isomers) [Example 10] = central band

Into which bin does this compound go? COc1ccc(F)cc1-n1nc(Cn2nc(-c3ccc(Cl)cc3)n(C[C@H](O)C(F)(F)F)c2=O)nc1C(C)O (single isomer, unassigned) [Example 39]
central band

Class? Entry: COc1ccccc1-n1nc(Cn2nc(-c3ccc(Cl)cc3)n(C[C@H](O)C(F)(F)F)c2=O)nc1C(C)O (single isomer, unassigned) [Example 12]
central band

For the record CC(O)c1nc(Cn2nc(-c3ccc(Cl)cc3)n(C[C@H](O)C(F)(F)F)c2=O)nn1-c1ccc(F)cc1Cl (single isomer, unassigned) [Example 35] , report the class its IC50 corresponds to.
central band

----------
# pIC50 per entry
# ASSAY_SYSTEM: human V2 receptor (Homo sapiens, UniProt P30518)
# Sequence (P30518 whole entry): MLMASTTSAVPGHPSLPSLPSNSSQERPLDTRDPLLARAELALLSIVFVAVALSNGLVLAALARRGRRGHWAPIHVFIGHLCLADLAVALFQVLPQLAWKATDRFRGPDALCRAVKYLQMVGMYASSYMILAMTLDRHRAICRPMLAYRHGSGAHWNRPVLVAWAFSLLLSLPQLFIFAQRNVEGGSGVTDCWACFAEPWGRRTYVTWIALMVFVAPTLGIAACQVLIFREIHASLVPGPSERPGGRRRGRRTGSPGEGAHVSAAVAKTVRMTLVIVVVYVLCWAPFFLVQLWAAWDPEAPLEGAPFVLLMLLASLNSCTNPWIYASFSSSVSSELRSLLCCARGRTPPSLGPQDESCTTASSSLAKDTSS
# ASSAY: Cellular in vitro assay for determining vasopressin receptor activity, V2 receptor cell line (CRE-luciferase)
# ASSAY_CONTEXT: CHO cell line transfected with human V2 receptor; [Arg8]-vasopressin at EC50; compounds of the invention (Table 1A); read-out: IC50 hV2
Note: pIC50 values are expressed as the negative base-10 logarithm of concentration in M.

Some solved entries appear below for comparison.
CC(O)c1nc(Cn2nc(-c3ccc(Cl)cc3)n(C[C@H](O)C(F)(F)F)c2=O)nn1-c1ccc(F)c(Cl)c1 (single isomer, unassigned) [Example 44] = 8.92
CC(O)c1nc(Cn2nc(-c3ccc(Cl)cc3)n(C[C@H](O)C(F)(F)F)c2=O)nn1-c1cccc(Cl)c1Cl (mixture of isomers) [Example 61] = 9.70
O=c1n(Cc2nc(CO)n(-c3ccccc3Cl)n2)nc(-c2ccc(Cl)cc2)n1C[C@H](O)C(F)(F)F = 8.28
CC(O)c1nc(Cn2nc(-c3ccc(Cl)cc3)n(C[C@H](O)C(F)(F)F)c2=O)nn1-c1cccc(OC(F)F)c1 (single isomer, unassigned) [Example 56] = 8.85
CC(O)c1nc(Cn2nc(-c3ccc(Cl)cc3)n(C[C@H](O)C(F)(F)F)c2=O)nn1-c1cc(F)ccc1Cl (single isomer, unassigned) [Example 60] = 8.28

Read the next record carefully.
Noted for CC(O)c1nc(Cn2nc(-c3ccc(Cl)cc3)n(C[C@H](O)C(F)(F)F)c2=O)nn1-c1cccc(C(F)F)c1 (single isomer, unassigned) [Example 21] : its pIC50 reads 8.66
